# Target system: Rhizopuspepsin (Rhizopus chinensis)
# Assay: Compound was tested for inhibition of Rhizopus chinensis pepsin.
Square brackets hold non-standard residues; d marks the D form. Peptide text beside a SMILES is read from it. * marks the point of attachment. Sta = CC(C)C[C@H](N)[C@@H](O)CC(=O)O; Boc = CC(C)(C)OC(=O)*
Measured property: pKi
The scale used: pKi is minus the common logarithm of the concentration in molar units.

Past entries and their recorded results:
>>> numeric_value("COC(=O)[C@H](CC(C)C)NC(=O)[C@@H](NC(=O)[C@H](Cc1ccccc1)NC(=O)C[C@H](O)[C@H](CC(C)C)NC(=O)[C@H](C)NC(=O)[C@H](C)NC(=O)[C@H](Cc1ccccc1)NC(=O)OC(C)(C)C)C(C)C (Boc-FAA[Sta]FVL-OMe)")
7.29
>>> numeric_value("COC(=O)[C@H](CC(C)C)NC(=O)[C@@H](NC(=O)[C@H](Cc1ccccc1)NC(=O)C[C@H](O)[C@H](CC(C)C)NC(=O)[C@H](C)NC(=O)[C@H](CC(C)C)NC(=O)[C@H](Cc1ccccc1)NC(=O)OC(C)(C)C)C(C)C (Boc-FLA[Sta]FVL-OMe)")
8.04
>>> numeric_value("COC(=O)[C@H](CC(C)C)NC(=O)[C@@H](NC(=O)C[C@H](O)[C@H](CC(C)C)NC(=O)[C@H](C)NC(=O)[C@H](C)NC(=O)[C@H](Cc1ccccc1)NC(=O)OC(C)(C)C)C(C)C (Boc-FAA[Sta]VL-OMe)")
7.11

We now examine a further molecule.
// lookup pKi for COC(=O)[C@H](CC(C)C)NC(=O)[C@@H](NC(=O)[C@H](Cc1ccccc1)NC(=O)C[C@H](O)[C@H](CC(C)C)NC(=O)[C@H](C)NC(=O)[C@H](Cc1ccccc1)NC(=O)[C@H](Cc1ccccc1)NC(=O)OC(C)(C)C)C(C)C (Boc-FFA[Sta]FVL-OMe)
7.85
